target: FGFR3 (SEQ ID NO: 5, amino acids 449-759) (Homo sapiens (Human), UniProt P22607); test: LC/MS FGFR3 kobs assay (covalent protein modification); type: binding; conditions: 500 nM FGFR3, 3 μM compound
Sequence (P22607 449-759): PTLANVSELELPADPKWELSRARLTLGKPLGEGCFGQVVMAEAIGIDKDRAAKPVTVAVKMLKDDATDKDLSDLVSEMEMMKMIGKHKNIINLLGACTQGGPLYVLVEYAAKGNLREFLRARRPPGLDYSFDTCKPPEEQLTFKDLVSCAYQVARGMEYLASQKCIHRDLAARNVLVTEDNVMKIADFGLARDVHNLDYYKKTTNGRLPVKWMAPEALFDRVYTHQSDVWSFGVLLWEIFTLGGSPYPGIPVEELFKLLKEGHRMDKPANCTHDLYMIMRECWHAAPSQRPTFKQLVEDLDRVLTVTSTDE
endpoint: FGFR3 Enz kobs (min⁻¹)

[1] C=CC(=O)N[C@H]1C[C@H](C(=O)N2CC(n3cc(-c4cc(OC)c5c(C#N)cnn5c4)cn3)C2)C1 [Example 79]
[2] COC/C=C/C(=O)N1CC(F)(C(=O)N2CCC(n3ncc(-c4cc(OC)c5c(C#N)cnn5c4)c3C)CC2)C1 [Example 154]
Look at 1 and 2 . Which one has the lower recorded FGFR3 Enz kobs number? Pick one and reply with its label.
1
(1: 0.00116 min⁻¹, 2: 0.00747 min⁻¹)

---

molecular target: HEK-293 cells transfected with dox-inducible human wild type FGFR1 (Homo sapiens (Human)); assay: FGFR1 pERK cell assay; type: cell-based; conditions: HEK-293 dox-inducible FGFR1, 1 hour compound, 100 ng/ml FGF-acidic; maximum concentration 5 μM
Sequence (P11362 22-822): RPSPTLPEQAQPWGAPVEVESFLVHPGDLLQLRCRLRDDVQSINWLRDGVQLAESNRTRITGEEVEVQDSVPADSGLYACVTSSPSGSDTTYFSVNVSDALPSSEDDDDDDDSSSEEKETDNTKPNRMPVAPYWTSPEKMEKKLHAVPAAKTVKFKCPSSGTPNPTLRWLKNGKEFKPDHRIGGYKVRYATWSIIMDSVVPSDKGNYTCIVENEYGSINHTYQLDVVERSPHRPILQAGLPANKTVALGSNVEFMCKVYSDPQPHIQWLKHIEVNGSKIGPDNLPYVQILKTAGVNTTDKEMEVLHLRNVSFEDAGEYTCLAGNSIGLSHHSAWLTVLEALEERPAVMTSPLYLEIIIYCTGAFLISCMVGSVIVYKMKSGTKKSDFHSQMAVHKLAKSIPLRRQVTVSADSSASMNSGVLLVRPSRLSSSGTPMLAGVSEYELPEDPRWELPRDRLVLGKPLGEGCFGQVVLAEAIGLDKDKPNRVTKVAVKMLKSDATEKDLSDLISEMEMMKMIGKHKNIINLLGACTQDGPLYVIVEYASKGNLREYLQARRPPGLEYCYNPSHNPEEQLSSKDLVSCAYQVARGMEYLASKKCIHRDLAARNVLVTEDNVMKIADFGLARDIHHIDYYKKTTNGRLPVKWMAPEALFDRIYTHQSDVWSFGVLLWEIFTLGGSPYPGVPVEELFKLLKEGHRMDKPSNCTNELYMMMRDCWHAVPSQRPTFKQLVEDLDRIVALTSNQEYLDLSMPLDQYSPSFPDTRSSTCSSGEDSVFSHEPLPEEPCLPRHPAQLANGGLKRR
pIC50: −log10 of the molar value.
endpoint: pIC50

Would you please look over these solved cases?
Provide value of pIC50 for this record tested with HEK-293 cells transfected with dox-inducible human wild type FGFR1 (Homo sapiens (Human)): C=CC(=O)N1CC(CN2CCC(n3ncc(-c4cc(OC)c5c(C#N)cnn5c4)c3C)CC2)C1
6.27

Provide value of pIC50 for this record tested with HEK-293 cells transfected with dox-inducible human wild type FGFR1 (Homo sapiens (Human)): COc1cc(-c2ccc(N3CCN(C(=O)C4(F)CN(C(=O)/C=C/CN(C)C)C4)CC3)nc2C)cn2ncc(C#N)c12
6.30

[1] COc1cc(-c2cnc(N3CCN(C(=O)C4(F)CN(C(=O)/C=C/CN(C)C)C4)CC3)cc2C)cn2ncc(C#N)c12
[2] C=CC(=O)N1CC(C(=O)N2CCC(n3ncc(-c4cc(OC)c5c(C#N)cnn5c4)c3C)CC2)C1
Look at 1 and 2 . Which one has the lower recorded pIC50 number? Pick one and reply with its label.
2

---

biological target: FGFR3 (SEQ ID NO: 5, amino acids 449-759) (Homo sapiens (Human), UniProt P22607); assay: LC/MS FGFR3 kobs assay (covalent protein modification); type: binding; details: 500 nM FGFR3, 3 μM compound
endpoint: FGFR3 Enz kobs (min⁻¹)

Would you please look over these solved cases?
// returns reported FGFR3 Enz kobs for input C=CC(=O)N1CC(C(=O)N2CCC(n3cc(-c4cc(OC)c5c(C#N)cnn5c4)cn3)CC2)C1C (stereo not shown)
0.01575

// returns reported FGFR3 Enz kobs for input COc1cc(-c2cnn(C3CCN(C(=O)C4CN(C(=O)/C=C/CCl)C4)CC3)c2)cn2ncc(C#N)c12
0.02709

// returns reported FGFR3 Enz kobs for input C=CC(=O)N1CCN(c2cccc(-n3cc(-c4cc(OC)c5c(C#N)cnn5c4)cn3)c2)CC1
0.00184

// returns reported FGFR3 Enz kobs for input COc1cc(-c2ccc(N3CCN(C(=O)C4(F)CN(C(=O)/C=C/CN(C)C)C4)CC3)nc2C)cn2ncc(C#N)c12
0.06456

// returns reported FGFR3 Enz kobs for input COc1cc(-c2cnn(C3CCN(C(=O)C4CN(C(=O)/C=C/CN5CC[C@H](F)C5)C4)CC3)c2)cn2ncc(C#N)c12
0.01781

[a] C=CC(=O)N1CC(C(=O)N2CCN(c3ccc(-c4cc(OC)c5c(C#N)cnn5c4)nn3)CC2)C1
[b] C=CC(=O)N1CC(F)(C(=O)N2CCC(n3cc(-c4cc(OC)c5c(Cl)cnn5c4)cn3)CC2)C1
API: POST /compare with a and b ; response names the item with higher FGFR3 Enz kobs. Pick one and reply with its label.
b
(b: 0.06393 min⁻¹, a: 0.01937 min⁻¹)
